Where do the numbers come from? From ChEMBL document CHEMBL1201862.

test system: OVCAR-5; assay: NCI tumour cell line growth inhibition, 48 h
Active and inactive are the calls of the source. Rule as the data show it: active = GI50 up to about 1.1 µM and inactive = higher.
Possible outcomes: t (active), f (inactive)

• O=C(O)CCC(=O)c1ccc2sc3ccccc3c2c1 = f
• C[C@@H]1S[C@H](c2ccccc2F)N2Cc3ccccc3N=C12 = f
• CC1(C)Oc2ccc(Cl)cc2C12CC2 = f
• CCOC(=O)c1cc2c(nc1N)-c1ncccc1CC2 = f
• O=C(CN1CCOCC1)CC(O)(C(F)(F)F)C(F)(F)F = f
• Cc1cc2ncn(CC(=O)O)c2cc1C = f
• C[C@H](NC(=O)CNC(=O)CCCCCC(=O)NCC(=O)N[C@@H](C)C(=O)OCc1ccccc1)C(=O)OCc1ccccc1 = f
• COc1cc(OC)c(/C=C/c2cnc3ccccc3n2)c(OC)c1 = f
• O=C(O)CCC(NC(=O)c1ccc(CNc2nc3ccccc3nc2C(=O)O)cc1)C(=O)O (configuration not stated) = f
• CCCCN(CCCC)C(=C(C(Cl)=C(Cl)Cl)[N+](=O)[O-])N(CCCC)CCCC = f
• COc1ccc(/C=C2\CNC/C(=C\c3ccc(OC)cc3)C2=O)cc1 = f
• C/C=C\C(CC(=O)O)CC(=O)NCCC1CN(S(=O)(=O)C(F)(F)F)c2ccccc21 (configuration not stated) = f
• COC(=O)C1=CO[C@@H](OC2OC(CO)C(O)C(O)C2O)[C@H]2[C@@H](C)[C@@H](O)[C@@H](O)[C@@H]12 (some centres not stated) = f
• CCn1c(SCC(=O)N/N=C2\SCC(=O)N2c2ccc(C)cc2)nc2ccccc2c1=O = f
• CN1CCCNCCN(CCc2ccccn2)CCCN(C)CC1 = f
• Cc1c(-c2coc(-c3ccccc3)n2)c(=O)n(-c2ccccc2)n1C = f
• C=CCC1NCCC2=C1C(S(=O)(=O)c1ccc(C)cc1)c1ccccc12 (configuration not stated) = f
• CCC(=O)Nc1ccc(NCC(=O)Nc2ccc(OC)cc2)cc1 = f
• O=C1CCC2(c3ccccc3)Nc3cc(Cl)ccc3N12 (configuration not stated) = f
• O=C(O)CCN1CCN(CCC(=O)O)CCN(CCC(=O)O)CC1 = f
• O=C(O)CSc1cc(-c2ccccc2)nc2ccccc12 = f
• C(=NCCN1CCOCC1)=NC1CCCCC1 = f
• ClCCN1CCO/C1=N/c1ccc2c(c1)CCCC2 = f
• Nn1c(S)nnc1N/N=C1/C(=O)Nc2c(Cl)cc(Cl)cc21 = f
• COc1ccc(OC)c(/C=C2/C(=O)N/C(=N\C(C)=O)N2C)c1 = f
• CC(C)=CCc1c(O)ccc2ccc(=O)oc12 [OSTHENOL] = f
• COc1cc2oc(=O)ccc2cc1CC=C(C)C [SUBEROSIN] = f
• Cc1cc(Br)cc(C)c1NC(=O)C(=O)C(C(=O)c1ccc(Cl)c(Cl)c1)C1OC(=O)c2ccccc21 (configuration not stated) = f
• Cc1ccc(/C=c2\c(=O)[nH]c3nc4ccccc4c(=O)n23)cc1 = f
• c1ccc(-c2cc(-c3cc(-c4ccccc4)no3)on2)cc1 = f
• COc1cc2c(cc1C)NC(=O)/C2=C/c1c(Cl)n(C)c2ccccc12 = f
• O=C1C(=Cc2cccc(Cl)c2)N=C(c2ccccc2)N1n1c(-c2ccccc2)nc2ccccc2c1=O = f
• Cc1n(CC(C)C)c2c([n+]1C)C(=O)c1ccccc1C2=O = t
• O=C(c1ccccc1)N1C(=S)N(c2ccc([N+](=O)[O-])cc2)C(=N/c2ccccc2)/C1=N\c1ccccc1 = f
• COc1c(O)c(OC)c2oc(-c3ccc(O)cc3)c(OC)c(=O)c2c1O = f
• CN1CCc2c1nc(-c1ccc([N+](=O)[O-])cc1)c1c2N(C)CC1 = f
• O=C1CCC(Cl)=CC2CCCN12 (configuration not stated) = f

----------
system: SW-620; test: NCI tumour cell line growth inhibition, 48 h
Activity calls are given as the source filed them. Cut-off read from the data, not from the text of the source: active = GI50 up to about 1.1 µM and inactive = higher.
measurement kind: GI50

* CCOC(=O)/C=C(/C(=O)OCC)n1cc(C)c(=O)n(Cc2cnnn2CCCCOC(C)=O)c1=O | 5.55 µM (inactive)
* CCSc1nc(COC(=O)NC)c(COC(=O)NC)n1C | > 100 µM (inactive)
* CC(C)(C)C(=O)Nc1c(C=O)ccc2[nH]cnc12 | > 100 µM (inactive)
* COc1ccc2nc3c(c(N)c2c1)C1CCC3C1(C)C (centres undefined) | 25.5 µM (inactive)
* C1C2CC3CC1CC(Nc1nc(NC45CC6CC(CC(C6)C4)C5)nc(NC45CC6CC(CC(C6)C4)C5)n1)(C2)C3 | 79.4 µM (inactive)
* O=C1CCC2(c3ccccc3)Nc3cc(Cl)ccc3N12 (centres undefined) | 41.5 µM (inactive)
* COC(=O)Nc1nc2cc(NC(=O)c3cccs3)ccc2[nH]1 | 27.5 µM (inactive)
* CS(=O)(=O)O[C@H]1[C@H](O)c2ccccc2[C@@H]1N=[N+]=[N-] | > 100 µM (inactive)
* Cc1cc2c(=O)n(-c3ccc(F)cc3)c(C)nc2c(C(=O)O)c1C | > 100 µM (inactive)
* O=C1CSC(c2ccc([N+](=O)[O-])cc2)N1c1ccc(-n2c(-c3ccccc3)nc3ccccc3c2=O)cc1 (centres undefined) | > 100 µM (inactive)
* COc1cc(N(CCC#N)CCC#N)ccc1C(=N/NC(=O)c1cc(Br)ccc1O)/N=N/c1ccccc1 | 31.6 µM (inactive)
* O=C1OC(c2ccccc2)=N/C1=C\c1cccnc1 | > 100 µM (inactive)
* COC(=O)N/N=c1\cc(C(=O)Nc2ccc(C)c(C)c2)oc2cc(O)ccc12 | > 100 µM (inactive)
* C(=NCCN1CCOCC1)=NC1CCCCC1 | > 100 µM (inactive)
* NC(=O)C(=O)N/N=C1/c2ccccc2CC1C1(O)C(=O)Nc2c(Cl)cc(Cl)cc21 (centres undefined) | > 100 µM (inactive)
* [N-]=[N+]=CC(=O)OC1Cc2ccccc2C1 | > 100 µM (inactive)
* COc1cc(Cn2c3ccccc3c3cc(C)c4c(c32)C=CC(C)(CCC=C(C)C)O4)cc2c1[nH]c1ccccc12 (centres undefined) [CHRESTFOLINE C] | > 100 µM (inactive)
* COC(=O)c1cc2c(c3c1CC(Cc1ccccc1)C3=O)CCC2 (centres undefined) | > 100 µM (inactive)
* CC(C)c1cccc(C(C)C)c1NC(=O)C(=O)C(C(=O)c1ccccc1-c1ccccc1)C1OC(=O)c2ccccc21 (centres undefined) | 19.9 µM (inactive)
* CCOP(=O)(OCC)C(c1ccc(F)cc1)N(C(=O)NC(F)(F)F)c1cccc(C(F)(F)F)c1 (centres undefined) | > 100 µM (inactive)
* Fc1cccc(C2SCc3nc4cc5ccccc5cc4n32)c1 (centres undefined) | > 100 µM (inactive)
* CCOC(=O)c1cc2c(nc1N)-c1ncccc1CC2 | 59.8 µM (inactive)
* COC(=O)c1csc(-c2nc(CCNC(=O)OC(C)(C)C)sc2Br)n1 | > 100 µM (inactive)
* Cc1cc2c(c(C(=O)NCC(=O)N[C@@H](C)C(=O)OCc3ccccc3)c1)Oc1c(cc(C)cc1C(=O)NCC(=O)N[C@@H](C)C(=O)OCc1ccccc1)S2 | > 100 µM (inactive)
* CC(=O)OCC1OC(N=[N+]=[N-])C(OC(C)=O)C(OC(C)=O)C1OC1OC(COC(C)=O)C(OC(C)=O)C(OC(C)=O)C1OC(C)=O (centres undefined) | > 100 µM (inactive)
* N#Cc1c(N)nc2c(/N=N\c3ccccc3)c(N)nn2c1Nc1ccccc1 | 10.8 µM (inactive)
* O=C1C(Cl)=C(Cl)C(=O)N1c1ccccc1Cl | > 52.6 µM (inactive)
* O=C(NC1CCCCCC1)C1C(=O)N(C2CCCCCC2)C(=O)/C1=N\O (centres undefined) | 37.6 µM (inactive)
* NC(=O)N/N=C(\Cc1nc2ccc(C(=O)c3ccccc3)cc2nc1O)C(=O)Nc1ccc(Br)cc1 | > 100 µM (inactive)
* C/C=C1\C=C(OC)CN(CCc2c[nH]c3ccccc23)C1 | 70.3 µM (inactive)
* O=P1(C(O)/C=C/c2ccccc2)N(Cc2ccccc2)[C@H](c2ccccc2)[C@@H](c2ccccc2)N1Cc1ccccc1 (some centres undefined) | 26.1 µM (inactive)
* CCc1cccc(C)c1NC(=O)CCc1nnc(S)[nH]1 | > 100 µM (inactive)
* CCn1c2c(c3ccccc31)C(c1ccccc1)CC1C(=O)N(c3ccccc3)C(=O)C21 (centres undefined) | > 100 µM (inactive)
* Cc1ccc(S(=O)(=O)C2=C(C(C)C)N=NC2(C)C)cc1 | > 100 µM (inactive)
* CCC(=O)N(c1ccccc1)C(C)CN1CCC(O)(c2cccc(C(F)(F)F)c2)CC1 (centres undefined) | > 100 µM (inactive)
* CC1(c2cccs2)CC(c2cccs2)=C(C#N)C(=C(C#N)C#N)N1 (centres undefined) | 11.4 µM (inactive)
* COC(=O)C1=C(OC(=O)/C(=C/c2ccccc2)c2ccc([N+](=O)[O-])cc2)C(C(=O)OC)[C@@]2(O)[C@@H](C(=O)OC)[C@H](C)C[C@@H]1[C@@H]2C(=O)OC (some centres undefined) | > 100 µM (inactive)
* O=C(Nc1ccc([N+](=O)[O-])cc1)C1C(=O)C(=O)N(c2ccc([N+](=O)[O-])cc2)C1=O (centres undefined) | 17.6 µM (inactive)
* O=c1c2sc(=S)n(-c3ccc(F)cc3)c2ncn1/N=C/c1ccc(F)cc1F | > 100 µM (inactive)
